Data origin: ChEMBL document CHEMBL2417469

system: CAKI-1; experiment: Cytotoxicity against human Caki1 cells after 48 hrs by SRB assay; format: functional; details: CAKI-1, 48 h
endpoint name: GI50 (nM)
One number for each entry, in nM.

>>> readout_value("O=CN1N=C(c2cccc(Nc3ccnc4cc(Cl)ccc34)c2)CC1c1ccc(Cl)cc1 (stereo unspecified)")
950
>>> readout_value("COc1cc(C2CC(c3ccc(Nc4ccnc5cc(Cl)ccc45)cc3)=NN2C=O)cc(OC)c1OC (stereo unspecified)")
5470
>>> readout_value("O=CN1N=C(c2ccc(Nc3ccnc4cc(Cl)ccc34)cc2)CC1c1ccccc1 (stereo unspecified)")
3820
>>> readout_value("COc1cccc2c1C(=O)c1c(O)c3c(c(O)c1C2=O)C[C@@](O)(C(=O)CO)C[C@@H]3O[C@H]1C[C@H](N)[C@H](O)[C@H](C)O1")
950

Then this compound:
Dear colleague, please send me the reported GI50 for O=CN1N=C(c2ccc(Nc3ccnc4cc(Cl)ccc34)cc2)CC1c1ccc(Cl)cc1 (stereo unspecified) when you can. 410
